Provenance of the data: patent US20240092919A1

Biological target: T1, Cynomolgus TCR(AEA41865/AEA41866)-zipper protein (cynomolgus monkey)
T1 construct: also called cyTCR-zipper protein; cynoTCR zipper
T1 TCR alpha: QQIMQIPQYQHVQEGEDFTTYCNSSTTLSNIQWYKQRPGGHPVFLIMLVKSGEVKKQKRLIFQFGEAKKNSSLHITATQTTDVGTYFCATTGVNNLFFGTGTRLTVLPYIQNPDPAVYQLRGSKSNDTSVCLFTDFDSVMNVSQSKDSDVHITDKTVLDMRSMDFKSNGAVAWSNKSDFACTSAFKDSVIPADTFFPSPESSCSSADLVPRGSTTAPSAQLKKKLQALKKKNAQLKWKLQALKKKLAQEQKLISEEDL
T1 TCR beta: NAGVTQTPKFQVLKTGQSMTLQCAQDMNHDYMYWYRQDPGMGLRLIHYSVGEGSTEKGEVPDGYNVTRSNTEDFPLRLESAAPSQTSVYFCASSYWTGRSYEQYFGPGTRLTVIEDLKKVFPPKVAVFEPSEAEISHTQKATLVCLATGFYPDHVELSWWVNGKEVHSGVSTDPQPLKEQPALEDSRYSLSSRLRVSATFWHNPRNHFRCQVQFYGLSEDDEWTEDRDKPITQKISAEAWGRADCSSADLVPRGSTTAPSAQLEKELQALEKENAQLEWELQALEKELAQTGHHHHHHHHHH
Experiment: ratio higher/lower kd on huTCR- and cyTCR-zipper (SPR)
Catalogue of gap in off-rate human vs cyno readings, one per entry.
Write the value in fold as a bare number.

// solved cases for gap in off-rate human vs cyno follow
# BINDER, gap in off-rate human vs cyno (fold)
measured = [
    ("T017000383 (VHH) VHH: EVQLVESGGGVVQPGGSLRLSCVASGDVHQINFLGWYRQAPGKEREKVAHISIGDQTDYADSAKGRFTISRDESKNMVYLQMNSLRPEDTALYFCRAMSRIWPYDYWGQGTLVTVSS", 5),
    ("T017000615 (VHH) VHH: EVQLVESGGGVVQPGGSLRLSCVASYDVHKINFYGWYRQAPGKEREKVAHISIGDQTDYADSAKGRFTISRDESKNMVYLQMNSLRPEDTALYFCRALSKIWPYDYWGQGTLVTVSS", 1.1),
    ("T017000358 (VHH) VHH: EVQLVESGGGVVQPGGSLRLSCVASGAVHKLNFLGWYRQAPGKEREKVAHISIGDQTDYADSAKGRFTISRDESKNMVYLQMNSLRPEDTALYFCRAMSRIWPYDYWGQGTLVTVSS", 8),
    ("T017000141 (VHH, not shown: small tags and cut ends, also called T0170000141) VHH: EVQLVESGGGVVQPGGSLRLSCVASGDVHKINFLGWYRQAPGKEREKVAHISIGDQTDYADSAKGRFTISRDESKNMVYLQMNSLRPEDTALYFCRAFSRIYPYDYWGQGTLVTVSS", 7.5),
]

gap in off-rate human vs cyno for T017000602 (VHH) VHH: EVQLVESGGGVVQPGGSLRLSCVASWDVHQINFLGWYRQAPGKEREKVAHISIGDQTDYADSAKGRFTISRDESKNMVYLQMNSLRPEDTALYFCRAFSKIWPYDYWGQGTLVTVSS ?
2
